# subject_of_test: human PDE9A2 (Homo sapiens, UniProt O76083)
# Construct: made in house; host or cells: Sf9 insect cells (infected; crude lysate used as enzyme source)
# Sequence (O76083 1-533 isoform O76083-2): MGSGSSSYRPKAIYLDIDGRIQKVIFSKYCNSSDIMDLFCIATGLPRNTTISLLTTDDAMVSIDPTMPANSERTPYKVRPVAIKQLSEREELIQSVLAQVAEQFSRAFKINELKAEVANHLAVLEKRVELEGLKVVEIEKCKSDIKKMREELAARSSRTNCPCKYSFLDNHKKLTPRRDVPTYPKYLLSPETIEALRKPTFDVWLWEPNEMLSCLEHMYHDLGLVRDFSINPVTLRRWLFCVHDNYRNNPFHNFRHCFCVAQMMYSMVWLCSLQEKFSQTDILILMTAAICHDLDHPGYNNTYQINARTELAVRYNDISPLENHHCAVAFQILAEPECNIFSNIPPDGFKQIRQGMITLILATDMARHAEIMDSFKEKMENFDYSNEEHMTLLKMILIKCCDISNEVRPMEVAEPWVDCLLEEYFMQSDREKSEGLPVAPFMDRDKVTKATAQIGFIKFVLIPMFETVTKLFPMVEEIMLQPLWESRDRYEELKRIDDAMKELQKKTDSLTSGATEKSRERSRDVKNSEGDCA
# assay_notes: PDE9A2 enzymatic activity assay (scintillation proximity assay)
# Assay type: biochemical
# measurement_conditions: at 10 μM; read-out: % Inhibition of PDE 9A2
Known inhibition at 10 µM of a selection of molecules
parameter: inhibition at 10 µM (%)

- mol: "O=c1[nH]c(Cc2cc(F)ccc2Br)nc2c1cnn2C1CCC(F)(F)CC1"
  reported: 97
- mol: "O=c1[nH]c(Cc2ccc(F)cc2-c2cccnc2)nc2c1cnn2C1CCC(F)(F)CC1"
  reported: 98
- mol: "CC1(C)CC(n2ncc3c(=O)[nH]c(CC4CC4)nc32)CC(C)(C)C1"
  reported: 98
- mol: "N#Cc1ccc(-c2cc(F)ccc2Cc2nc3c(cnn3C3CCC(F)(F)CC3)c(=O)[nH]2)cn1"
  reported: 93

====

# subject_of_test: human PDE9A2 (Homo sapiens, UniProt O76083)
# Construct: crude lysate used as enzyme source)
# assay_notes: PDE9A2 enzymatic activity assay (scintillation proximity assay)
# measurement_conditions: specific IC50 value is within the given range
pIC50: −log10 of the molar value.

- compound: "CC(C)(C)OC(=O)NC1CCCC(n2ncc3c(=O)[nH]c(Cc4ccccc4OC(F)(F)F)nc32)C1 (mixture of isomers)"
  subject_of_test: "human PDE9A2 (Homo sapiens, UniProt O76083)"
  pIC50: "7.00 to 9.00"
- compound: "O=c1[nH]c(Cc2ccccc2CCCN2CCOCC2)nc2c1cnn2C1CCC(F)(F)CC1"
  subject_of_test: "human PDE9A2 (Homo sapiens, UniProt O76083)"
  pIC50: "7.00 to 9.00"
- compound: "O=C(Cc1ccccc1Cc1nc2c(cnn2C2CCC(F)(F)CC2)c(=O)[nH]1)N1CCOCC1"
  subject_of_test: "human PDE9A2 (Homo sapiens, UniProt O76083)"
  pIC50: "5.82 to 7.00"
- compound: "COc1ccc(Cc2nc3c(cnn3C3CCC(F)(F)CC3)c(=O)[nH]2)cc1"
  subject_of_test: "human PDE9A2 (Homo sapiens, UniProt O76083)"
  pIC50: "7.00 to 9.00"
- compound: "Cc1cccnc1Cc1nc2c(cnn2C2CCC(F)(F)CC2)c(=O)[nH]1"
  subject_of_test: "human PDE9A2 (Homo sapiens, UniProt O76083)"
  pIC50: "7.00 to 9.00"
- compound: "O=c1[nH]c(CC2CC2)nc2c1cnn2C1CCC(F)(F)CC1"
  subject_of_test: "human PDE9A2 (Homo sapiens, UniProt O76083)"
  pIC50: "7.00 to 9.00"
- compound: "Cc1nc(-c2ccccc2Cc2nc3c(cnn3C3CCC(F)(F)CC3)c(=O)[nH]2)no1"
  subject_of_test: "human PDE9A2 (Homo sapiens, UniProt O76083)"
  pIC50: "7.00 to 9.00"
- compound: "CCC(Cc1nc2c(cnn2C2CCC(F)(F)CC2)c(=O)[nH]1)C(F)(F)F (single isomer, unassigned) [Example 102]"
  subject_of_test: "human PDE9A2 (Homo sapiens, UniProt O76083)"
  pIC50: "5.82 to 7.00"

====

# subject_of_test: human PDE9A2 (Homo sapiens)
# Construct: made in house; host or cells: Sf9 insect cells (infected; crude lysate used as enzyme source)
# assay_notes: PDE9A2 enzymatic activity assay (scintillation proximity assay)
# Assay type: biochemical
# measurement_conditions: at 10 μM; read-out: % Inhibition of PDE 9A2
Known inhibition at 10 µM of a selection of compounds

- mol: "O=c1[nH]c(Cc2cc(F)ccc2-c2ccncc2)nc2c1cnn2C1CCC(F)(F)CC1"
  inhibition at 10 µM: "100%"
- mol: "O=c1[nH]c(Cc2cc(F)ccc2-c2ccc(F)nc2)nc2c1cnn2C1CCC(F)(F)CC1"
  inhibition at 10 µM: "100%"
- mol: "COc1cc(-c2ccc(F)cc2Cc2nc3c(cnn3C3CCC(F)(F)CC3)c(=O)[nH]2)ccn1"
  inhibition at 10 µM: "97%"
- mol: "O=C(Cc1ccccc1Cc1nc2c(cnn2C2CCC(F)(F)CC2)c(=O)[nH]1)N1CCCCC1"
  inhibition at 10 µM: "95%"
